Target: T1, human fibroblast activation protein (FAP) (human, UniProt Q12884 26-760)
T1 construct: also called human FAP; hFAP
T1 sequence: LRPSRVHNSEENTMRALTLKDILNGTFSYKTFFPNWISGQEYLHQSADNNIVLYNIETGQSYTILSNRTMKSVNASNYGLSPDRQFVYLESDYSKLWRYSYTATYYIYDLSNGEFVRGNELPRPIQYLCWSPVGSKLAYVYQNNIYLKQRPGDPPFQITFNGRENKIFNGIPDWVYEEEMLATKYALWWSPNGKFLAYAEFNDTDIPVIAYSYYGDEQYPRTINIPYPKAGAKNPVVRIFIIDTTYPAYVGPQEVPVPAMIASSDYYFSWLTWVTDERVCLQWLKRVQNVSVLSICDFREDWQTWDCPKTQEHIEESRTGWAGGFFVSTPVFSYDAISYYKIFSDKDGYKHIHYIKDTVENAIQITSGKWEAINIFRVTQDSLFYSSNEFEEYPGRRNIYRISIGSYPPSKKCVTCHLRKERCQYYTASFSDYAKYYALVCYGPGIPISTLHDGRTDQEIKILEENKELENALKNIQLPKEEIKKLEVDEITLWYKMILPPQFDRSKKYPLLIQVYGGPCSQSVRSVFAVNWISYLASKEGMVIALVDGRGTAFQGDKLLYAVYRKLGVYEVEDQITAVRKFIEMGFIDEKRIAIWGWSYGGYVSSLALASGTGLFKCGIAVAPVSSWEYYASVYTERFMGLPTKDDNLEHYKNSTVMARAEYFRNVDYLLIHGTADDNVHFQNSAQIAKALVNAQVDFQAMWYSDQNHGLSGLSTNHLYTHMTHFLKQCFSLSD
Experiment: BLI (Octet), kinetics to human FAP, post TCO conjugation
endpoint: kon (M⁻¹ s⁻¹)
Report as a plain number; the unit M⁻¹ s⁻¹ is understood.

Worked examples, 4 binders total:
TCO-VHH9 (VHH, trans-cyclooctene (TCO) conjugated via TCO-NHS; site(s) and number not stated, also called TCO conjugated VHH9; VHH9 post conjugation) VHH: QVQLQESGGGLVQSGGSLRLSCVASGSISSINAMGWYRQAPGNKREWVAGITSGGSTNYADAVLGRFSIFRDNPKNTVYLQMNSLKPEDTAVYYCNTWPPSTFGSWGQGTQVTVSS; 1.26e+06
TCO-VHH8 (VHH, trans-cyclooctene (TCO) conjugated via TCO-NHS; site(s) and number not stated, also called TCO conjugated VHH8; VHH8 post conjugation) VHH: QVQLQESGGGTVQPGGSLRLSCAASGISVSIASMAWYRQAPGKQRELVAGIISGGSTNYADSVKGRFTISRDNAKKVVLLQMNSLKPEDTAVYYCNTYPPFVGPGATATWGQGTQVTVSS; 833000
TCO-VHH1 (VHH, trans-cyclooctene (TCO) conjugated via TCO-NHS; site(s) and number not stated, also called TCO conjugated VHH1; VHH1 post conjugation) VHH: DVQLVESGGGLVQPGGSLRLSCVASGRLSSSNSMAWYRQVPGKRRELVAGITGGGETNYADFVGGRFTISRDNAKNGLYLQLNGLKPEDTAAYYCNFWPPLINYWGQGTQVTVSS; 694000
TCO-VHH7 (VHH, trans-cyclooctene (TCO) conjugated via TCO-NHS; site(s) and number not stated, also called TCO conjugated VHH7; VHH7 post conjugation) VHH: QVQLQESGGGLVQAGGSLRLSCTASGTFSGRNAMAWYRQAPGKRRELVAGIRSDDSTNYVDSVKGRFTISRDNAKNTVYLQMNSLRPEDTAVYYCNLWPPVIGAGFGSWGQGTQVTVSS; 746000

Kindly review the next binder as well.
input: Return reported kon. Input binder: TCO-VHH6 (VHH, trans-cyclooctene (TCO) conjugated via TCO-NHS; site(s) and number not stated, also called TCO conjugated VHH6; VHH6 post conjugation) VHH: DVQLVESGGGLVQAGGSLRLSCAVSGSISSANSMGWYRQAPGKQRDVVAGLTTGGRSHYADSVKGRFTISRDNAKNTVYLQMNSLKAEDTAVYYCNLWPPVQGYWGQGTQVTVSS
output: 1.07e+06
